Listed here: items and their measured growth inhibition by drug alone.
# Tested on: RIVA
# experimentSummary: growth inhibition by drug alone (1 - RLU/untreated control) (fraction); higher = stronger inhibition
# conditionDetails: 10 nM; time (day): 4; 177Lu-lilotomab satetraxetan 0 ug/ml

Example entries and their recorded answers appear below.
{"smilesInput": "O=C(O)c1nn(Cc2ccc(Cl)cc2Cl)c2ccccc12", "growth inhibition by drug alone": 0.0585}
{"smilesInput": "CC(=O)Nc1ccc(OC[C@](C)(O)C(=O)Nc2ccc([N+](=O)[O-])c(C(F)(F)F)c2)cc1", "growth inhibition by drug alone": -0.0064}

Quick note, growth inhibition by drug alone for `N[C@@H](Cc1ccc(N(CCCl)CCCl)cc1)C(=O)O` landed at 0.000425

response.value for `Cc1ccccc1-n1c(Cn2cnc3c(N)ncnc32)nc2cccc(C)c2c1=O` (field: growth inhibition by drug alone) = -0.0854

Sure, the documented growth inhibition by drug alone for `Cn1cc(C2=C(c3cn(C4CCN(Cc5ccccn5)CC4)c4ccccc34)C(=O)NC2=O)c2ccccc21` is -0.222

The compound listed as `CC[C@@H](C(=O)[C@@H](C)[C@@H](O)[C@H](C)[C@@H]1O[C@@H]([C@@H](CC)C(=O)O)CC[C@@H]1C)[C@H]1O[C@]2(C=C[C@@H](O)[C@]3(CC[C@@](C)([C@H]4CC[C@](O)(CC)[C@H](C)O4)O3)O2)[C@H](C)C[C@@H]1C` has a reported growth inhibition by drug alone of 0.0825

====

# Test system: RIVA
# experimentSummary: growth inhibition by drug alone (1 - RLU/untreated control) (fraction); higher = stronger inhibition
# conditionDetails: 10 nM; time (day): 3; 177Lu-lilotomab satetraxetan 0 ug/ml
The reader will find reported growth inhibition by drug alone values listed item by item below.
Answer with the value's number alone.

{"compound": "C[C@]12CCC(=O)C(O)=C1CC[C@@H]1[C@@H]2CC[C@]2(C)C(=O)CC[C@@H]12", "measuredTarget": "RIVA", "reportedMetric": "growth inhibition by drug alone", "testValue": -0.227}
{"compound": "N[C@@H](Cc1ccc(N(CCCl)CCCl)cc1)C(=O)O", "measuredTarget": "RIVA", "reportedMetric": "growth inhibition by drug alone", "testValue": -0.0205}
{"compound": "N.N.[Cl][Pt][Cl] [Cisplatin]", "measuredTarget": "RIVA", "reportedMetric": "growth inhibition by drug alone", "testValue": -0.00407}
{"compound": "O=C(Oc1ccc([N+](=O)[O-])cc1)N1CCC(C(O)(c2ccc3c(c2)OCO3)c2ccc3c(c2)OCO3)CC1", "measuredTarget": "RIVA", "reportedMetric": "growth inhibition by drug alone", "testValue": 0.0104}
{"compound": "O=C(O)c1nn(Cc2ccc(Cl)cc2Cl)c2ccccc12", "measuredTarget": "RIVA", "reportedMetric": "growth inhibition by drug alone", "testValue": 0.0283}
{"compound": "Cn1cc(C2=C(c3cn(C4CCN(Cc5ccccn5)CC4)c4ccccc34)C(=O)NC2=O)c2ccccc21", "measuredTarget": "RIVA", "reportedMetric": "growth inhibition by drug alone", "testValue": -0.161}
{"compound": "CC1=C2C[C@H]3[C@@H](CC=C4C[C@@H](O)CC[C@@]43C)[C@@H]2CC[C@]12O[C@@H]1C[C@H](C)CN[C@H]1[C@H]2C", "measuredTarget": "RIVA", "reportedMetric": "growth inhibition by drug alone", "testValue": -0.0274}
{"compound": "CC(=O)Nc1ccc(OC[C@](C)(O)C(=O)Nc2ccc([N+](=O)[O-])c(C(F)(F)F)c2)cc1", "measuredTarget": "RIVA", "reportedMetric": "growth inhibition by drug alone", "testValue": 0.017}

Entry under test: `Cc1ccccc1-n1c(Cn2cnc3c(N)ncnc32)nc2cccc(C)c2c1=O` . Its growth inhibition by drug alone was -0.0276

Documented growth inhibition by drug alone of `C=C1C[C@@H]2[C@H](CC[C@]3(C)C(=O)CC[C@@H]23)[C@@]2(C)C=CC(=O)C=C12` : 0.0187

====

Listed next: entries and their corresponding growth inhibition by drug plus 177Lu-lilotomab satetraxetan.
# Tested on: U-2932
# experimentSummary: growth inhibition by drug plus 177Lu-lilotomab satetraxetan (1 - RLU/untreated control) (fraction); higher = stronger inhibition
# conditionDetails: 1000 nM; time (day): 4; 177Lu-lilotomab satetraxetan 1 ug/ml
Kindly provide the number alone.

Recorded growth inhibition by drug plus 177Lu-lilotomab satetraxetan, per entry:
{"compound": "O=C(Oc1ccc([N+](=O)[O-])cc1)N1CCC(C(O)(c2ccc3c(c2)OCO3)c2ccc3c(c2)OCO3)CC1", "testValue": 0.0258}
{"compound": "Cc1ccccc1-n1c(Cn2cnc3c(N)ncnc32)nc2cccc(C)c2c1=O", "testValue": 0.0697}
{"compound": "CC(O)(CS(=O)(=O)c1ccc(F)cc1)C(=O)Nc1ccc(C#N)c(C(F)(F)F)c1 (centres undefined) [Bicalutamide (Casodex)]", "testValue": 0.0514}
{"compound": "Cn1cc(C2=C(c3cn(C4CCN(Cc5ccccn5)CC4)c4ccccc34)C(=O)NC2=O)c2ccccc21", "testValue": -0.0188}
{"compound": "CC(=O)Nc1ccc(OC[C@](C)(O)C(=O)Nc2ccc([N+](=O)[O-])c(C(F)(F)F)c2)cc1 [Andarine (GTX-007)]", "testValue": 0.0374}

Kindly note the recorded growth inhibition by drug plus 177Lu-lilotomab satetraxetan for CC1=C2C[C@H]3[C@@H](CC=C4C[C@@H](O)CC[C@@]43C)[C@@H]2CC[C@]12O[C@@H]1C[C@H](C)CN[C@H]1[C@H]2C [Cyclopamine] , which is 0.0394

// recorded growth inhibition by drug plus 177Lu-lilotomab satetraxetan for C[C@]12CCC(=O)C(O)=C1CC[C@@H]1[C@@H]2CC[C@]2(C)C(=O)CC[C@@H]12 [Formestane] : -0.018

Form: compound = O=P1(N(CCCl)CCCl)NCCCO1 (centres undefined) [Cyclophosphamide monohydrate] ; growth inhibition by drug plus 177Lu-lilotomab satetraxetan = 0.00578

Entry N[C@@H](Cc1ccc(N(CCCl)CCCl)cc1)C(=O)O [Melphalan] — recorded growth inhibition by drug plus 177Lu-lilotomab satetraxetan = 0.0898
